# Target: human TLR9 (Homo sapiens)
# Construct: host or cells: HEK-Blue cells
# Sequence (Q9NR96 26-1032): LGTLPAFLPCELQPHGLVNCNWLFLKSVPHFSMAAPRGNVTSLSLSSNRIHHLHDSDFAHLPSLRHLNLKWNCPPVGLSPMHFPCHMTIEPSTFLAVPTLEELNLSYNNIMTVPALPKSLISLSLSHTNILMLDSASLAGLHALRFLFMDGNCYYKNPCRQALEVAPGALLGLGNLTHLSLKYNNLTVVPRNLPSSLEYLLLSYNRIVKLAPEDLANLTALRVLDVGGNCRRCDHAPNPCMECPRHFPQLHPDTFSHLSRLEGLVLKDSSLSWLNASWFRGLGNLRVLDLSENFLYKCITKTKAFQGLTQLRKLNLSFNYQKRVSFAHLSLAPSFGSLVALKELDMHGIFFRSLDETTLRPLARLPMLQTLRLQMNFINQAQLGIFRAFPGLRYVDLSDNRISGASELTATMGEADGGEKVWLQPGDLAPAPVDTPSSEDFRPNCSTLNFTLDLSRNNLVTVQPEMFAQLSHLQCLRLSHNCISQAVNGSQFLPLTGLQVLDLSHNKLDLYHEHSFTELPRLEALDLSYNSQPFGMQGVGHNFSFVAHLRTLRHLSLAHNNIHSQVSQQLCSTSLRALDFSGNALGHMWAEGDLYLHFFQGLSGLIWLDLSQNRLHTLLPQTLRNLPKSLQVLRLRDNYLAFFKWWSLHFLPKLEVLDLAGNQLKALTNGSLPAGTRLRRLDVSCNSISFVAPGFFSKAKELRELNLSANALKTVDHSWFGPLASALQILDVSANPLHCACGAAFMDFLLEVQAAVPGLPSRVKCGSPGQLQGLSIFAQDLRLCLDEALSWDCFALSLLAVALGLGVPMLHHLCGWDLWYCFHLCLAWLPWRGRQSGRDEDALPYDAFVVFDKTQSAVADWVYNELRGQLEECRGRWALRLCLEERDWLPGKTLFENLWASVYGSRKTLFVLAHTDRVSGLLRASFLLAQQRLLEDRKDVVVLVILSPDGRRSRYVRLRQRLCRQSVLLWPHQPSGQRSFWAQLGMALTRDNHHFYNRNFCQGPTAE
# Protocol: TLR9 inhibition reporter assay (HEK-Blue cells, SEAP reporter)
# Format: cell-based
# Measurement setup: HEK-Blue cells overexpressing human TLR9; stimulated with ODN2006 5 nM; SEAP read after 22 hour; dose range 0.05 nM-50 μM

Smiles representation	IC50 [µM]
CC(C)N1CCN(c2ccc(-c3ccc4[nH]c(=O)c(-c5ccc(C(N)=O)cc5)cc4c3)cc2)CC1	0.257
CC(C)N1CCN(c2ccc(-c3ccc4[nH]c(=O)c(-c5ccc(C(=O)N6CCCC6(C)C)cc5)cc4c3)cc2)CC1	0.2
Cn1c(=O)c(-c2ccccc2)cc2cc(-c3ccc(C4CCN(C5COC5)CC4)cc3)ccc21	2.27
CC(C)N1CCN(c2ccc(-c3ccc4[nH]c(=O)c(-c5ccc(C(=O)N(C)C)cc5)cc4c3)cc2)CC1	0.736

====

# Target: human TLR8 (Homo sapiens)
# Sequence (Q9NR97 27-1041): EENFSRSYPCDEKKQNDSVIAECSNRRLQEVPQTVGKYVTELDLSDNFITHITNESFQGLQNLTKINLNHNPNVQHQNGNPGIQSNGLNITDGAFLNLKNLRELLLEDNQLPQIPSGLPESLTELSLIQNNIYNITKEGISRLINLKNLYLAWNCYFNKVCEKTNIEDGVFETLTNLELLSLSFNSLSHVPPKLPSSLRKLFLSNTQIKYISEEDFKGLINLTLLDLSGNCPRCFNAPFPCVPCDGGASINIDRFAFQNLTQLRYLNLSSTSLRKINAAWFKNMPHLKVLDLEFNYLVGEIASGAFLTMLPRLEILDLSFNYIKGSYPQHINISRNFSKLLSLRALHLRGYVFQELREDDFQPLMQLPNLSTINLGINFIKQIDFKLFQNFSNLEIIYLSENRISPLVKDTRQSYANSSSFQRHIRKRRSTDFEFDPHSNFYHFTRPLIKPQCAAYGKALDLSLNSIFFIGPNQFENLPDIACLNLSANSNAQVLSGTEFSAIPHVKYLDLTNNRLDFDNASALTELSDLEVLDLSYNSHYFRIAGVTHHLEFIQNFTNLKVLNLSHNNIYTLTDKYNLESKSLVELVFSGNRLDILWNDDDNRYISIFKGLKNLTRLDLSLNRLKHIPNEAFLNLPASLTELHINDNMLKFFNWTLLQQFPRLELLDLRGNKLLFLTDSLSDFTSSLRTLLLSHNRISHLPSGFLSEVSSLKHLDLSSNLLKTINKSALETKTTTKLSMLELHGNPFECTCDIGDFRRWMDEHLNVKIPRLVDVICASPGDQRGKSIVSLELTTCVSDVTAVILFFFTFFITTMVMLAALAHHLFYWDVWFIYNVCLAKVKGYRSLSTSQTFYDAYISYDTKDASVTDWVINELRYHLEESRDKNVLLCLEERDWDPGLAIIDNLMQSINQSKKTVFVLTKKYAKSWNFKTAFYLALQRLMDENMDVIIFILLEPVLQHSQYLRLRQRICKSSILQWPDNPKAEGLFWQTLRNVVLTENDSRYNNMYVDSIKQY
# Protocol: TLR8 inhibition reporter assay (HEK-Blue cells, SEAP reporter)
# Measurement setup: HEK-Blue cells overexpressing human TLR8; stimulated with R848 15.9 μM; SEAP read after 22 hour; dose range 0.05 nM-50 μM
Param label: returns 1.0 when IC50 < 10 µM, returns 0.0 otherwise, including exact equality.

Molecule	Assigned label
Cn1c(=O)c(-c2ccccc2)cc2cc(-c3ccc(C4CCN(C5COC5)CC4)cc3)ccc21 [Example 100]	1.0
NS(=O)(=O)c1ccc(-c2cc3cc(-c4ccc(C5CCN(C6COC6)CC5)cc4)ccc3[nH]c2=O)cc1 [Example 92]	0.0
CCc1c(-c2ccc(S(C)(=O)=O)cc2)c(=O)n(C)c2ccc(-c3ccc(C4CCN(C5COC5)CC4)cc3)cc12 [Example 101]	1.0
CC(C)N1CCN(c2ccc(-c3ccc4[nH]c(=O)c(-c5ccc(C(=O)N(C)C6COC6)cc5)cc4c3)cc2)CC1 [Example 13]	0.0
CC(C)N1CCN(c2ccc(-c3ccc4[nH]c(=O)c(-c5ccc(S(C)(=O)=O)cc5)cc4c3)cc2)CC1 [Example 4]	0.0
CC(C)N1CCN(c2ccc(-c3ccc4[nH]c(=O)c(-c5cccc(F)c5F)cc4c3)cc2)CC1 [Example 24]	0.0
CC(C)N1CCN(c2ccc(-c3ccc4[nH]c(=O)c(-c5cccc(C(F)(F)F)c5)cc4c3)cc2)CC1 [Example 45]	0.0
CC(C)N1CCN(c2ccc(-c3ccc4[nH]c(=O)c(-c5ccc(Cl)cc5Cl)cc4c3)cc2)CC1 [Example 38]	0.0
CC(C)C(=O)Nc1ccc(-c2cc3cc(-c4ccc(N5CCN(C(C)C)CC5)cc4)ccc3n(C)c2=O)cc1 [Example 26]	1.0
CC(C)N1CCN(c2ccc(-c3ccc4[nH]c(=O)c(-c5ccccc5)cc4c3)cc2)CC1 [Example 18]	0.0
CC(C)N1CCC(c2ccc(-c3ccc4[nH]c(=O)c(-c5ccc(S(N)(=O)=O)cc5)cc4c3)cc2)CC1 [Example 65]	1.0
CC(C)Cn1c(=O)c(-c2ccc(S(C)(=O)=O)cc2)cc2cc(-c3ccc(C4CCN(C(C)C)CC4)cc3)ccc21 [Example 85]	0.0
CC(C)N1CCN(c2ccc(-c3ccc4[nH]c(=O)c(-c5ccc(C(=O)N6CCCC6(C)C)cc5)cc4c3)cc2)CC1 [Example 19]	0.0
CCc1c(-c2ccc(S(C)(=O)=O)cc2)c(=O)[nH]c2ccc(-c3ccc(N4CCN(C(C)C)CC4)cc3)cc12 [Example 84]	1.0
